Ref: ChEMBL document CHEMBL5260852

Record form. Attribute: AUC at 24 h. Fill in for each entry.
Experiment: AUC in C57BL/6 mouse plasma at 6 mg/kg,iv and measured upto 24 hrs by LC-MS/MS analysis
Assay type: ADME, organism-based
Parameters: dose 6 mg/kg, time < 24 hrs, route iv
Numbered stars: 1 amine (or outer) side, 2 acyl side, 3 side chain; on linkers, the order of the positions; unused ones are H or OH. Square brackets hold non-standard residues; d marks the D form. Peptide text beside a SMILES is read from it. * marks the point of attachment. X1 = N#Cc1cnc2ccc(-c3c(-c4ccc(F)c(Cl)c4)ncn3CCOCN*)nn12; C18 diacid = O=C(O)CCCCCCCCCCCCCCCCC(=O)*; γGlu = O=C(O)[C@H](CCC(=O)[*:2])N[*:1]; PABC = O=C(OCc1ccc(N[*:1])cc1)[*:2]; Palmitoyl = CCCCCCCCCCCCCCCC(=O)*; AEEA = NCCOCCOCC(=O)O
Number only, in µM·h; omit the unit.

Request: Requested field: AUC at 24 h. Item: CC(C)C[C@H](NC(=O)COCCOCCNC(=O)COCCOCCNC(=O)CC[C@H](NC(=O)CCCCCCCCCCCCCCCCC(=O)O)C(=O)O)C(=O)N[C@@H](CO)C(=O)NCC(=O)N[C@@H](CCCCN)C(=O)Nc1ccc(COC(=O)NCOCCn2cnc(-c3ccc(F)c(Cl)c3)c2-c2ccc3ncc(C#N)n3n2)cc1 ({C18 diacid-γGlu-AEEA-AEEA}-LSGK[PABC]-X1)
Result: 348

Request: Requested field: AUC at 24 h. Item: CCCCCCCCCCCCCCCC(=O)N[C@@H](CCC(=O)N[C@@H](CC(C)C)C(=O)N[C@@H](CO)C(=O)NCC(=O)N[C@@H](CCCCN)C(=O)Nc1ccc(COC(=O)NCOCCn2cnc(-c3ccc(F)c(Cl)c3)c2-c2ccc3ncc(C#N)n3n2)cc1)C(=O)O ({Palmitoyl-γGlu}-LSGK[PABC]-X1)
Result: 40.9

Request: Requested field: AUC at 24 h. Item: CC(C)C[C@H](NC(=O)COCCOCCNC(=O)COCCOCCNC(=O)COCCOCCNC(=O)CC[C@H](NC(=O)CCCCCCCCCCCCCCCCC(=O)O)C(=O)O)C(=O)N[C@@H](CO)C(=O)NCC(=O)N[C@@H](CCCCN)C(=O)Nc1ccc(COC(=O)NCOCCn2cnc(-c3ccc(F)c(Cl)c3)c2-c2ccc3ncc(C#N)n3n2)cc1 ({C18 diacid-γGlu-AEEA-AEEA-AEEA}-LSGK[PABC]-X1)
Result: 270

Request: Requested field: AUC at 24 h. Item: CC(C)C[C@H](NC(=O)COCCOCCNC(=O)COCCOCCNC(=O)CC[C@H](NC(=O)CC[C@H](NC(=O)CC[C@H](NC(=O)CCCCCCCCCCCCCCCCC(=O)O)C(=O)O)C(=O)O)C(=O)O)C(=O)N[C@@H](CO)C(=O)NCC(=O)N[C@@H](CCCCN)C(=O)Nc1ccc(COC(=O)NCOCCn2cnc(-c3ccc(F)c(Cl)c3)c2-c2ccc3ncc(C#N)n3n2)cc1 ({C18 diacid-γGlu-γGlu-γGlu-AEEA-AEEA}-LSGK[PABC]-X1)
Result: 270

Request: Requested field: AUC at 24 h. Item: CC(C)C[C@H](NC(=O)COCCOCCNC(=O)COCCOCCNC(=O)CC[C@H](NC(=O)CC[C@H](NC(=O)CCCCCCCCCCCCCCCCC(=O)O)C(=O)O)C(=O)O)C(=O)N[C@@H](CO)C(=O)NCC(=O)N[C@@H](CCCCN)C(=O)Nc1ccc(COC(=O)NCOCCn2cnc(-c3ccc(F)c(Cl)c3)c2-c2ccc3ncc(C#N)n3n2)cc1 ({C18 diacid-γGlu-γGlu-AEEA-AEEA}-LSGK[PABC]-X1)
Result: 270
